Property: Ki; scope: individual compounds
target: GHSR1a receptor (Homo sapiens, UniProt Q92847); construct: expressed in transfected cells; host or cells: HEK293 (membranes); test: 125I-Ghrelin binding assay; settings: Binding pKi, displacement of 125I-ghrelin (0.053 nM), membranes of HEK293 cells transfected with GHSR1a; Cheng-Prussoff; '—' not defined
Sequence (Q92847 whole entry): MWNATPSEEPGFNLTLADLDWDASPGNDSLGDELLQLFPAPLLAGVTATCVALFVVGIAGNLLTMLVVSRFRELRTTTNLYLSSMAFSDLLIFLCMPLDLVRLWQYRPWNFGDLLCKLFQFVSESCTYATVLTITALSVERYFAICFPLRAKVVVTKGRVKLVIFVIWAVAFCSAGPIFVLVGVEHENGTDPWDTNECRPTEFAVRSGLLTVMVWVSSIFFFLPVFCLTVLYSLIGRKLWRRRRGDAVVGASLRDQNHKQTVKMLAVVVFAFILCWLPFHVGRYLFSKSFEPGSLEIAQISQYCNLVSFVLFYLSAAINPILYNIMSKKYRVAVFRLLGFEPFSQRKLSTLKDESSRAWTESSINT
Entry rule: numbers only, all in nM.

In the examples that follow, each entry is paired with its recorded Ki.
COc1cccc2c(C(=O)NCC(C)C)cn(CCCN3CCC(c4nc5ccccc5s4)CC3)c12 [drawing 706] | 501
COc1cccc2c(C(=O)NCC(C)C)cn(CCCN3CCCN(CCc4ccccc4)CC3)c12 | 794
COc1cccc2c(C(=O)NCc3cccc(C)c3)cn(CCCN3CCCN(Cc4ccc(F)cc4)CC3)c12 | 100

Reported Ki for COc1cccc2c(C(=O)C3CC3)cn(CCCN3C4CCC3CC(CC(=O)c3ccc(Cl)cc3)C4)c12 (stereo not shown) was 39.8
